Let's look at some compounds and their measured AC50.
Target: Paired box protein Pax-8 (Homo sapiens, UniProt Q06710)
Sequence (Q06710 whole entry): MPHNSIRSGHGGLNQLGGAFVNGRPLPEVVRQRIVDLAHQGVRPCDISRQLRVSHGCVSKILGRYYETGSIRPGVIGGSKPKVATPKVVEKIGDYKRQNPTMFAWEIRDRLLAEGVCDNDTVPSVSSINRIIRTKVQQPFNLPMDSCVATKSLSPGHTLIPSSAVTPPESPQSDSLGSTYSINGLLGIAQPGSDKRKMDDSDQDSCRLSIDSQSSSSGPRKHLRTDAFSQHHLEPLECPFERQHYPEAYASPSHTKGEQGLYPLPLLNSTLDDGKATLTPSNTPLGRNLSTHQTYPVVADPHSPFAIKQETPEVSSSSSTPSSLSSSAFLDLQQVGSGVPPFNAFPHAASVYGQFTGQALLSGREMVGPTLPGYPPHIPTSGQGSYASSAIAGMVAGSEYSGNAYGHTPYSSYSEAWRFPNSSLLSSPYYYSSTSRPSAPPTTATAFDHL
Assay: PAX8 transcriptional activity inhibition in RMG-I – RMG-I cells, luciferase, cherry-pick, dose response (AID 687027);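 also: luciferase reporter driven by Pax8 target thyroperoxidase promoter measured by SteadyGlo luminescence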
Assay type: functional, cell-based
The source made the active and inactive calls. No rule for the calls is given here.
metric: AC50

[[record]]
compound = "O=C(Nc1ccc(C(F)(F)F)cc1)Nc1ccc2c(c1)[C@H]1C[C@@H](CC(=O)N3CCc4ccccc4C3)O[C@@H](CO)[C@H]1O2"
tgt = "Paired box protein Pax-8 (Homo sapiens, UniProt Q06710)"
recorded_value = "10.7 µM (active)"

[[record]]
compound = "CCCCCCCCn1c2c(c(=N)c3c1CCC3)CCCC2"
tgt = "Paired box protein Pax-8 (Homo sapiens, UniProt Q06710)"
recorded_value = "2.36 µM (active)"

[[record]]
compound = "NC1=C(Br)C(=O)c2ncccc2C1=O"
tgt = "Paired box protein Pax-8 (Homo sapiens, UniProt Q06710)"
recorded_value = "1.22 µM (active)"

[[record]]
compound = "CC(C)c1ccc(/C=C(\\c2nc3ccccc3[nH]2)S(=O)(=O)c2ccccc2)cc1"
tgt = "Paired box protein Pax-8 (Homo sapiens, UniProt Q06710)"
recorded_value = "5.15 µM (active)"

[[record]]
compound = "COc1ccccc1N(C(=O)CCl)c1cn(C(C)=O)c2ccccc12"
tgt = "Paired box protein Pax-8 (Homo sapiens, UniProt Q06710)"
recorded_value = "1.56 µM (active)"

[[record]]
compound = "C[C@H]1CN([C@@H](C)CO)C(=O)c2c(c3ccccc3n2C)-c2ccccc2CO[C@H]1CN(C)S(=O)(=O)c1ccc(C(F)(F)F)cc1"
tgt = "Paired box protein Pax-8 (Homo sapiens, UniProt Q06710)"
recorded_value = "3.69 µM (active)"

[[record]]
compound = "CC(C)(C)c1nnc(NC(=O)CCS(=O)(=O)c2ccccc2)s1"
tgt = "Paired box protein Pax-8 (Homo sapiens, UniProt Q06710)"
recorded_value = "4.6 µM (active)"

[[record]]
compound = "C[C@H](CO)N1C[C@H](C)[C@H](CN(C)S(=O)(=O)c2ccccc2)OCCCC[C@H](C)Oc2ccc(NS(=O)(=O)c3ccc(Cl)cc3)cc2C1=O"
tgt = "Paired box protein Pax-8 (Homo sapiens, UniProt Q06710)"
recorded_value = "10.1 µM (active)"

[[record]]
compound = "C[C@@H]1CN([C@@H](C)CO)C(=O)Cc2cc(NC(=O)Nc3ccc(C(F)(F)F)cc3)ccc2O[C@@H]1CN(C)S(=O)(=O)c1ccc(Cl)cc1"
tgt = "Paired box protein Pax-8 (Homo sapiens, UniProt Q06710)"
recorded_value = "10.3 µM (active)"

[[record]]
compound = "O=C(OCc1ccccc1)N(CCCCN(CCCNCc1ccccc1)C(=O)OCc1ccccc1)CCCNCc1ccccc1"
tgt = "Paired box protein Pax-8 (Homo sapiens, UniProt Q06710)"
recorded_value = "9.11 µM (active)"

[[record]]
compound = "Cc1nn(-c2ccccc2)c(Cl)c1CN(C(=O)CCl)c1ccc(Cl)cc1"
tgt = "Paired box protein Pax-8 (Homo sapiens, UniProt Q06710)"
recorded_value = "3.19 µM (active)"

[[record]]
compound = "C[C@H]1CCCCO[C@H](CN(C)C(=O)Nc2ccc(F)cc2)[C@@H](C)CN([C@@H](C)CO)C(=O)c2cc(NC(=O)Nc3ccc(C(F)(F)F)cc3)ccc2O1"
tgt = "Paired box protein Pax-8 (Homo sapiens, UniProt Q06710)"
recorded_value = "8.09 µM (active)"

[[record]]
compound = "Cc1ccccc1-c1ccc2c(c1)O[C@H](CN(C)C(=O)Nc1ccc(C(F)(F)F)cc1)[C@H](C)CN([C@@H](C)CO)S2(=O)=O"
tgt = "Paired box protein Pax-8 (Homo sapiens, UniProt Q06710)"
recorded_value = "9.3 µM (active)"

[[record]]
compound = "CC(C)CC#Cc1ccc2c(c1)O[C@H](CN(C)Cc1ccc(F)cc1)[C@H](C)CN([C@H](C)CO)S2(=O)=O"
tgt = "Paired box protein Pax-8 (Homo sapiens, UniProt Q06710)"
recorded_value = "23.1 µM (active)"

[[record]]
compound = "C[C@@H]1CN([C@@H](C)CO)C(=O)Cc2cc(NC(=O)Nc3ccccc3)ccc2O[C@H]1CN(C)Cc1ccc(Oc2ccccc2)cc1"
tgt = "Paired box protein Pax-8 (Homo sapiens, UniProt Q06710)"
recorded_value = "9.84 µM (active)"

[[record]]
compound = "C[C@@H]1CN([C@@H](C)CO)C(=O)c2cc(NC(=O)Nc3ccc(C(F)(F)F)cc3)ccc2O[C@@H](C)CCCCO[C@@H]1CN(C)Cc1ccncc1"
tgt = "Paired box protein Pax-8 (Homo sapiens, UniProt Q06710)"
recorded_value = "9.03 µM (active)"

[[record]]
compound = "COc1cc(OC)nc(-n2ncc(Br)c(Br)c2=O)n1"
tgt = "Paired box protein Pax-8 (Homo sapiens, UniProt Q06710)"
recorded_value = "2.66 µM (active)"

[[record]]
compound = "O=C1c2cccc3cc([N+](=O)[O-])cc(c23)C(=O)N1CCN1CCCC1 [PINAFIDE]"
tgt = "Paired box protein Pax-8 (Homo sapiens, UniProt Q06710)"
recorded_value = "0.87 µM (active)"

[[record]]
compound = "COCCN(CC(=O)NC1CCCCC1)C(=O)/C=C/C(=O)c1ccc(OC)cc1O"
tgt = "Paired box protein Pax-8 (Homo sapiens, UniProt Q06710)"
recorded_value = "5.38 µM (active)"

